study.target: recombinant human AMCase (Homo sapiens, UniProt Q9BZP6)
Sequence (Q9BZP6 22-476): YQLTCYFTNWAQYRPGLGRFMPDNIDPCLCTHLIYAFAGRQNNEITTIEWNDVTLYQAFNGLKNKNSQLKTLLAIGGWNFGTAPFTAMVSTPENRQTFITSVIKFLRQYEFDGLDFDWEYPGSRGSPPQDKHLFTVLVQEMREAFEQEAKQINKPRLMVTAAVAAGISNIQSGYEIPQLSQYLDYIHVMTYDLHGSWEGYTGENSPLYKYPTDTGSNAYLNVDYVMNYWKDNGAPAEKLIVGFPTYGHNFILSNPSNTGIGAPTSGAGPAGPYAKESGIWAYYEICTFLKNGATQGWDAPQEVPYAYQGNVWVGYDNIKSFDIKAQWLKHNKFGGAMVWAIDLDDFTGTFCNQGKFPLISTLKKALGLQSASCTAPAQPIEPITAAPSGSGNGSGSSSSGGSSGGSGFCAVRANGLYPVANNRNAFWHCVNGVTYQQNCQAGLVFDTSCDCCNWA
test.description: Human AMCase Activity Assay
recorded.conditions: recombinant hAMCase, 4-methylumbelliferyl chitobioside substrate, citrate buffer pH 5.2, 37° C., 60 minutes; read-out: Activity (IC50 value key)
Where a name gives a salt, the structure may show the parent alone.
parameter.measured: IC50

(Q) // returns reported IC50 for input `Nc1n[nH]c(N2CCC(N(CCc3ccc(Cl)cc3)CCc3ccc(Cl)cc3)CC2)n1`
(A) < 0.1 µM

(Q) // returns reported IC50 for input `Cc1ccc(C)c(CNC(=O)C2CCN(c3nc(N)n[nH]3)CC2)c1`
(A) > 100 µM

(Q) // returns reported IC50 for input CN(C)C(CC(=O)N1CCN(c2nc(N)n[nH]2)CC1)c1ccccc1F (centres unmarked) [Example 242, dihydrochloride]
(A) > 100 µM

More entries:
(Q) // returns reported IC50 for input `CN(CCc1ccc2c(c1)OCO2)C1CCN(c2nc(N)n[nH]2)CC1`
(A) 1 to 10 µM

(Q) // returns reported IC50 for input `Cc1ccc(CN(CCc2ccc(Cl)cc2)C2CCN(c3nc(N)n[nH]3)CC2)cc1`
(A) < 0.1 µM

(Q) // returns reported IC50 for input `C[C@@H](CN1CCN(c2nc(N)n[nH]2)CC1)Oc1ccc(Cl)cc1`
(A) 10 to 100 µM

(Q) // returns reported IC50 for input CCC(Oc1ccc(Br)cc1)C(=O)N1CCN(c2nc(N)n[nH]2)CC1 (centres unmarked)
(A) > 100 µM

(Q) // returns reported IC50 for input CC(Cc1ccc(Cl)cc1)N(Cc1ccccc1)C1CCN(c2nc(N)n[nH]2)CC1 (centres unmarked) [Example 159, dihydrochloride]
(A) < 0.1 µM

###

Items are presented alongside their recorded pIC50.
study.target: recombinant human AMCase (Homo sapiens)
test.description: Human AMCase Activity Assay
recorded.conditions: recombinant hAMCase, 4-methylumbelliferyl chitobioside substrate, citrate buffer pH 5.2, 37° C., 60 minutes; read-out: Activity (IC50 value key)
pIC50: −log10 of the molar value. Counter-ions that a name gives are not always drawn.

Here's what some known entries look like.
(Q) // returns reported pIC50 for input `COC[C@@H](c1ccccc1)N(CCc1ccc(Cl)cc1)C1CCN(c2nc(N)n[nH]2)CC1`
(A) 4.00 to 5.00

(Q) // returns reported pIC50 for input `Nc1n[nH]c(N2CCN(C(=O)COc3ccc(Cl)cc3)CC2)n1`
(A) < 4.00

(Q) // returns reported pIC50 for input `Nc1n[nH]c(N2CCC(C(=O)NCC3CCC(F)(F)CC3)CC2)n1`
(A) < 4.00

(Q) // returns reported pIC50 for input `Nc1n[nH]c(N2CCN(CCOc3cccc(Cl)c3)CC2)n1`
(A) 4.00 to 5.00

(Q) // returns reported pIC50 for input `Nc1n[nH]c(N2CCN(CCOc3c(Cl)cccc3Cl)CC2)n1`
(A) 4.00 to 5.00

(Q) // returns reported pIC50 for input `COc1cccc(CCN(C)C2CCN(c3nc(N)n[nH]3)CC2)c1OC`
(A) 4.00 to 5.00

(Q) // returns reported pIC50 for input CC(COc1ccc(Br)cc1)N1CCN(c2nc(N)n[nH]2)CC1 (stereo not drawn)
(A) 4.00 to 5.00

(Q) // returns reported pIC50 for input `Cc1ccccc1C(=O)NCC1CCN(c2nc(N)n[nH]2)CC1`
(A) < 4.00

More entries:
(Q) // returns reported pIC50 for input CC1CN(c2nc(N)n[nH]2)CCC1N(C)CCc1ccc(Br)cc1 (stereo not drawn) [Example 230, dihydrochloride]
(A) 6.00 to 7.00
